Exercise: state measured MIC for each of the molecules provided.
# System: Helicobacter pylori
# assay.method.text: Minimum inhibitory concentration that inhibited macroscopic colony growth of Helicobacter pylori
# Assay type: functional
Give bare numbers, in µg/mL.

CN/C(=N\CCSCc1nc[nH]c1C)NC#N	1130

# per-item lookup of MIC; items listed below
1. COc1ccccc1OCC/N=C(\N)Nc1nc(-c2ccc(CNC(C)=O)o2)cs1
2. CC(=O)NCc1ccc(-c2csc(NC(=N)NCCc3ccccc3[N+](=O)[O-])n2)o1

2.5
0.14

# per-item lookup of MIC; items listed below
1. COc1ccccc1CC/N=C(\N)Nc1nc(-c2cc(-c3ccccc3)c(CNC(C)=O)o2)cs1
2. CC(=O)NCc1ccc(-c2csc(NC(=N)NCc3ccccc3O)n2)o1
3. CC(=O)NCc1ccc(-c2csc(NC(=N)NCCc3ccccc3)n2)o1
4. CC(=O)NCc1ccc(-c2csc(NC(=N)NCCc3ccncc3)n2)o1
5. COc1ccc(CC/N=C(\N)Nc2nc(-c3ccc(CNC(C)=O)o3)cs2)cc1

[9.47, 5.8, 0.13, 1.92, 0.9]

# per-item lookup of MIC; items listed below
1. COc1ccccc1CC/N=C(\N)Nc1nc(-c2cc(CNC(C)=O)c(C)o2)cs1
2. CC(=O)NCc1ccc(-c2csc(NC(=N)NCCNc3ccccc3)n2)o1
3. CC[C@H]1OC(=O)[C@H](C)[C@@H](O[C@H]2C[C@@](C)(OC)[C@@H](O)[C@H](C)O2)[C@H](C)[C@@H](O[C@@H]2O[C@H](C)C[C@H](N(C)C)[C@H]2O)[C@](C)(OC)C[C@@H](C)C(=O)[C@H](C)[C@@H](O)[C@]1(C)O
4. CC(=O)NCc1ccc(-c2csc(NC(=N)NCCc3ccccn3)n2)o1
5. CC(=O)NCc1ccc(-c2csc(NC(=N)NCCc3ccco3)n2)o1
6. CC(=O)NCc1ccc(-c2csc(NC(=N)NCCc3c[nH]cn3)n2)o1

1. 0.046
2. 1.79
3. 0.057
4. 0.73
5. 0.24
6. 31
